# target: Fibroblast growth factor 2 (Homo sapiens) (UniProt P09038)
# Sequence (P09038 whole entry, looked up): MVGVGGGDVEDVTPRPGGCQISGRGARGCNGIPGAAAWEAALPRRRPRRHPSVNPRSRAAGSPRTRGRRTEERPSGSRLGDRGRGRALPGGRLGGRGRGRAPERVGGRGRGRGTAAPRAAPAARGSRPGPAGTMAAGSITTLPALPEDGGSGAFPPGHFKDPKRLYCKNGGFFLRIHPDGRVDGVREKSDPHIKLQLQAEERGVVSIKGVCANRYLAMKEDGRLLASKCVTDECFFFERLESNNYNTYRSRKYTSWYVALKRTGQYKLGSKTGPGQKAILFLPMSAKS
# protocolNotes: basic fibroblast growth factor binding to printed compounds – biochemical, small-molecule microarray, 635/667 nm fluorescence, primary screen (AID 1133)
# conditionDescription: FGF2, fluorescence 635/667, higher = more signal
Label rule, in plain words: composite z-score of 1 and up is Y, under 1 is N.

CN(C)CCCCCCNC(=O)[C@@H]1C[C@@H]2C(=O)N3CCC[C@H]3C(=O)N2[C@@H]1c1cccc(OCCO)c1 = Y
CC1CC/C=C\[C@H]2OC34C=CCN(C(C)C)C(=O)[C@H]3N(CCO)C(=O)[C@@H]4C2C(=O)O1 (stereo partly specified) = N
OCCCC1=CC(c2ccc(CN3CCCC3)cc2)N(Cc2cc3c(cc2Br)OCO3)CC1 (stereo unspecified) = N
CC(CO)N1C(=O)[C@@H]2[C@H]3C(=O)OCC=C[C@H]3OC23C=CCN(Cn2nnc4ccccc42)C(=O)[C@@H]13 (stereo partly specified) = N
O=C1OCCC=C[C@H]2OC34C=CCN(c5ccc6ccccc6c5)C(=O)[C@H]3N(CCCO)C(=O)[C@@H]4C12 (stereo partly specified) = N
CCCN1C(=O)[C@@]2(Cc3ccccc31)N=C(c1ccc(OCCCO)cc1)O[C@H]2c1ccccc1 = Y
COc1cc2c(cc1O)C(c1ccc(CN3CCCC3)cc1)N(Cc1cc3c(cc1Br)OCO3)CC2 (stereo unspecified) = N
COCC(=C=CC[C@H](O)c1ccc(OCCO)cc1)CCO = Y
Cc1cc(C)c(C(O)C2C=CC3C(=O)N(c4ccccc4)C(=O)C3N2Nc2ccccc2F)c(C)c1 (stereo unspecified) = N
[N-]=[N+]=NCc1ccccc1[C@@H]1OC(c2ccc(OCCCO)cc2)=N[C@]1(CCS(=O)(=O)c1ccccc1)C(=O)O = N
CCOC(=O)C1=CC[C@@H](c2ccccc2)N(S(=O)(=O)c2ccc(C)cc2)[C@H]1c1ccccc1 = N
C=C[C@H](C)[C@H](OC(=O)Nc1ccc(SC)cc1)c1ccc(OCCO)cc1 = Y
C=CCOC(=O)[C@@]1(Cc2ccccc2)C[C@H]2CO[C@H](c3ccc(OC)cc3)N2C1=O = N
CC(C)NC(=O)[C@@]1(c2ccc([N+](=O)[O-])cc2)CC(=O)N(C2CCCCC2)[C@@H]1c1ccc(CO)cc1 = N
COCCOC(=O)N1C(=O)[C@@]2(c3cc(C#CCC(C(=O)OC)C(=O)OC)ccc31)[C@H](c1ccc(OCCO)cc1)N1[C@H](c3ccccc3)[C@H](c3ccccc3)OC(=O)[C@H]1[C@@H]2C(=O)N1CCc2cc(OC)c(OC)cc2C1 = Y
